Each recorded value in this set is attributed to patent US20240376189A1.

Target: T1, human C5a (human, UniProt P01031 678-751, biotinylated in the U937/C5aR ligand blocking assay (site not stated))
T1 construct: also called human antigen; huC5a
T1 sequence: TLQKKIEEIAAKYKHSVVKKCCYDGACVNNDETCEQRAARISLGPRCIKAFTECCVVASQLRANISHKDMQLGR
Assay: SPR, scFv captured via anti-c-myc/anti-His, 5 nM human antigen as analyte, 1:1 fit
The reader will find reported koff values listed item by item below.

| binder | result qualifier | koff, s⁻¹ |
| --- | --- | --- |
| 17D2 (scFv, V domains shown, Combination mutant scFv) VH: QVQLVQSGAEVKKPGSSVKVSCKASGYTFTDHIIHWMRQAPGQGLEWMGYIYPREGWTNYNENFKGRVTITADKSTSTAYMELSSLRSEDTAVYYCARERNLEYFDYWGQGTTVTVSS VL: DIVLTQSPASLAVSPGQRATITCKASQSVDFEGDNYMNWYQQKPGQPPKLLIYATSNLDSGVPARFSGSGSGTDFTLTINPVEAEDTANYYCQQSVEDPHTFGGGTKVEIK | = | 1.89e-05 |
| 10F5 (scFv, V domains shown, Combination mutant scFv) VH: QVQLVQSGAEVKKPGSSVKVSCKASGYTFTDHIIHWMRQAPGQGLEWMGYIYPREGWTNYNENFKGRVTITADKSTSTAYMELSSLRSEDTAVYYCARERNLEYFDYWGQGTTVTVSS VL: DIVLTQSPASLAVSPGQRATITCKASQSVDYEGDNYMNWYQQKPGQPPKLLIYATSNLDSGVPARFSGSGSGTDFTLTINPVEAEDTANYYCQQSLEDPHTFGGGTKVEIK | < | 1e-05 |
| 13B7 (scFv, V domains shown, Combination mutant scFv) VH: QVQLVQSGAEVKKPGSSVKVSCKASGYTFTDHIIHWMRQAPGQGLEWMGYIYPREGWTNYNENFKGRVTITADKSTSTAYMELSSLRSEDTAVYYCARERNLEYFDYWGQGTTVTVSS VL: DIVLTQSPASLAVSPGQRATITCKASQSVDYEGFNYMNWYQQKPGQPPKLLIYAASNLDSGVPARFSGSGSGTDFTLTINPVEAEDTANYYCQQSVEDPHTFGGGTKVEIK | < | 1e-05 |
| NM2 (scFv, V domains shown, scFv expressed in E. coli BL21 (periplasmic extract)) VH: QVQLVQSGAEVKKPGSSVKVSCKASGYTFTDHIIHWMRQAPGQGLEWMGYIYPREGNTNYNENFKGRVTITADKSTSTAYMELSSLRSEDTAVYYCARERNLEYFDYWGQGTTVTVSS VL: DIVLTQSPASLAVSPGQRATITCKASQSVDYEGDNYMNWYQQKPGQPPKLLIYAASNLDSGVPARFSGSGSGTDFTLTINPVEAEDTANYYCQQSNEDPHTFGGGTKVEIK | = | 0.000736 |
| 18F5 (scFv, V domains shown, Combination mutant scFv) VH: QVQLVQSGAEVKKPGSSVKVSCKASGYTFTDHIIHWMRQAPGQGLEWMGYIYPREGFTNYNENFKGRVTITADKSTSTAYMELSSLRSEDTAVYYCARERNLEYFDYWGQGTTVTVSS VL: DIVLTQSPASLAVSPGQRATITCKASQSVDFEGFNYMNWYQQKPGQPPKLLIYAASNLDSGVPARFSGSGSGTDFTLTINPVEAEDTANYYCQQSVEDPHTFGGGTKVEIK | = | 3.03e-05 |
